- subject of test: Histamine H3 receptor (Rattus norvegicus, UniProt Q9QYN8)
- Sequence (Q9QYN8 whole entry): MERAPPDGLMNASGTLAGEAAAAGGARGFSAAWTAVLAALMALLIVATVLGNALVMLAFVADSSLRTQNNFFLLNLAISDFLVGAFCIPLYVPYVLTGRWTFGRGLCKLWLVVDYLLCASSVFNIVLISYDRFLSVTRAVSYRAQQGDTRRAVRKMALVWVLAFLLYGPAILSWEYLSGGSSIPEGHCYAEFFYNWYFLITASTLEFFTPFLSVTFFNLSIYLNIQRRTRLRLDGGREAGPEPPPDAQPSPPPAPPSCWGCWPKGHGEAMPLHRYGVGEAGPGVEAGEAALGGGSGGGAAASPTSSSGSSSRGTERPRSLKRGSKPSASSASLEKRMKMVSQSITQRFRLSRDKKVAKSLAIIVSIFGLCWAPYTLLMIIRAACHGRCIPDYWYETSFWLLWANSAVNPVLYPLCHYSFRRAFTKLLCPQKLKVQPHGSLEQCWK
- test description: Displacement of [3H]-R-alpha-ethylhistamine from histamine H3 receptor in rat cerebral cortical tissue membranes after 45 mins by liquid scintillation spectrometry
Each entry falls into one class according to its Ki; the ranges are interval 1: < 0.8 nM; interval 2: ≥ 0.8 nM and < 3 nM; interval 3: ≥ 3 nM

These recorded examples may help you get a feel for the data.
| smi | subject of test | label class |
| --- | --- | --- |
| c1cnn(-c2ccc(Oc3ccc4c(c3)CCN(C3CCC3)CC4)nc2)c1 | Histamine H3 receptor (Rattus norvegicus, UniProt Q9QYN8) | interval 3 |
| CCN(C)C(=O)c1ccc(Oc2ccc3c(c2)CCN(C2CCC2)CC3)nc1 | Histamine H3 receptor (Rattus norvegicus, UniProt Q9QYN8) | interval 3 |
| CC(=O)c1ccc(Oc2ccc3c(c2)CCN(C2CCC2)CC3)cn1 | Histamine H3 receptor (Rattus norvegicus, UniProt Q9QYN8) | interval 1 |
| CNC(=O)c1ccc(Oc2ccc3c(c2)CCN(C2CCC2)CC3)cn1 | Histamine H3 receptor (Rattus norvegicus, UniProt Q9QYN8) | interval 3 |
| CCNC(=O)c1ccc(Oc2ccc3c(c2)CCN(C2CCC2)CC3)cn1 | Histamine H3 receptor (Rattus norvegicus, UniProt Q9QYN8) | interval 3 |

Q) Where would `NC(=O)c1ccc(Oc2ccc3c(c2)CCN(C2CCC2)CC3)nc1` land among the classes by reported Ki?
A) interval 2

Q) Next: `CNC(=O)c1cnc(Oc2ccc3c(c2)CCN(C2CCC2)CC3)cn1`
A) interval 2

Q) Next: `O=C1C[C@@H](O)CN1c1ccc(Oc2ccc3c(c2)CCN(C2CCC2)CC3)nc1`
A) interval 2

Q) Next: `CC(=O)Nc1ccc(Oc2ccc3c(c2)CCN(C2CCC2)CC3)nc1`
A) interval 2

Q) Next: `O=C1CCN1c1ccc(Oc2ccc3c(c2)CCN(C2CCC2)CC3)nc1`
A) interval 1

====

- test description: Oral bioavailability in Beagle dog
- Assay type: ADME, organism-based, Canis lupus familiaris
- condition context: in vivo
measured parameter: bioavailability (%)
Could you give me the number in %? Just the number is fine.

Q) Looking for the measured bioavailability of O=C1CCCN1c1ccc(Oc2ccc3c(c2)CCN(C2CCC2)CC3)nc1 [GSK239512] , can you help?
A) 33

====

- test description: Cmax in iv dosed cynomolgus monkey
- Type: ADME, organism-based, Macaca fascicularis
- Design: route intravenous
- condition context: in vivo
measured parameter: Cmax (nM)
Could you give me the number in nM? Just the number is fine.

Q) Looking for the measured Cmax of O=C1CCCN1c1ccc(Oc2ccc3c(c2)CCN(C2CCC2)CC3)nc1 [GSK239512] , can you help?
A) 383

====

- test description: Total blood clearance in iv dosed Beagle dog
- Format: ADME, organism-based, Canis lupus familiaris
- condition context: whole blood
measured parameter: clearance (mL/min/kg)
Could you give me the number in mL/min/kg? Just the number is fine.

Q) Looking for the measured clearance of `O=C1CCCN1c1ccc(Oc2ccc3c(c2)CCN(C2CCC2)CC3)nc1` , can you help?
A) 22

====

- test description: Terminal half life in po dosed cynomolgus monkey
- Assay type: ADME, organism-based, Macaca fascicularis
- condition context: in vivo, read-out: beta t1/2 (converted)
measured parameter: half-life (h)
Could you give me the number in h? Just the number is fine.

Q) Looking for the measured half-life of `O=C1CCCN1c1ccc(Oc2ccc3c(c2)CCN(C2CCC2)CC3)nc1` , can you help?
A) 1.7

====

- test description: Total blood clearance in iv dosed Sprague-Dawley rat
- Format: ADME, organism-based
- condition context: whole blood
measured parameter: clearance (mL/min/kg)
Could you give me the number in mL/min/kg? Just the number is fine.

Q) Looking for the measured clearance of `O=C1CCCN1c1ccc(Oc2ccc3c(c2)CCN(C2CCC2)CC3)nc1` , can you help?
A) 39

====

- test description: Volume of distribution at steady-state in iv dosed Beagle dog
- Type: ADME, organism-based, Canis lupus familiaris
- condition context: in vivo, read-out: Vdss
measured parameter: Vd (L/kg)
Could you give me the number in L/kg? Just the number is fine.

Q) Looking for the measured Vd of O=C1CCCN1c1ccc(Oc2ccc3c(c2)CCN(C2CCC2)CC3)nc1 [GSK239512] , can you help?
A) 2.8

====

- test description: Tmax in po dosed Beagle dog
- Assay type: ADME, organism-based, Canis lupus familiaris
- condition context: in vivo
measured parameter: Tmax (min)
Could you give me the number in min? Just the number is fine.

Q) Looking for the measured Tmax of O=C1CCCN1c1ccc(Oc2ccc3c(c2)CCN(C2CCC2)CC3)nc1 [GSK239512] , can you help?
A) 42

====

- subject of test: Histamine H3 receptor (Homo sapiens)
- test description: Antagonist activity at human histamine H3 receptor expressed in CHOK1 cells assessed as inhibition of GTPgammaS binding
- Type: functional, cell-based, CHO-K1
Each entry falls into one class according to its Ki; the ranges are lower segment (below 0.2 nM), middle segment (0.2 nM to below 0.5 nM), upper segment (0.5 nM or more)

These recorded examples may help you get a feel for the data.
| molecule | label class |
| --- | --- |
| c1cnc(Oc2ccc3c(c2)CCN(C2CCC2)CC3)cn1 | upper segment |
| CC(=O)c1ccc(Oc2ccc3c(c2)CCN(C2CCC2)CC3)cn1 | lower segment |

Q) Where would `O=C1CCCCN1c1ccc(Oc2ccc3c(c2)CCN(C2CCC2)CC3)nc1` land among the classes by reported Ki?
A) middle segment

Q) Next: `c1ccc(Oc2ccc3c(c2)CCN(C2CCC2)CC3)nc1`
A) upper segment

Q) Next: `O=C1CCN1c1ccc(Oc2ccc3c(c2)CCN(C2CCC2)CC3)nc1`
A) lower segment

Q) Next: `c1cc(-c2ccc(Oc3ccc4c(c3)CCN(C3CCC3)CC4)nc2)[nH]n1`
A) middle segment

Q) Next: `CC(C)NC(=O)c1ccc(Oc2ccc3c(c2)CCN(C2CCC2)CC3)nc1`
A) lower segment

====

Overview of reported inhibition at 10 µM across a group of compounds:
- subject of test: hERG (KCNH2) (Homo sapiens)
- Sequence (Q12809 whole entry): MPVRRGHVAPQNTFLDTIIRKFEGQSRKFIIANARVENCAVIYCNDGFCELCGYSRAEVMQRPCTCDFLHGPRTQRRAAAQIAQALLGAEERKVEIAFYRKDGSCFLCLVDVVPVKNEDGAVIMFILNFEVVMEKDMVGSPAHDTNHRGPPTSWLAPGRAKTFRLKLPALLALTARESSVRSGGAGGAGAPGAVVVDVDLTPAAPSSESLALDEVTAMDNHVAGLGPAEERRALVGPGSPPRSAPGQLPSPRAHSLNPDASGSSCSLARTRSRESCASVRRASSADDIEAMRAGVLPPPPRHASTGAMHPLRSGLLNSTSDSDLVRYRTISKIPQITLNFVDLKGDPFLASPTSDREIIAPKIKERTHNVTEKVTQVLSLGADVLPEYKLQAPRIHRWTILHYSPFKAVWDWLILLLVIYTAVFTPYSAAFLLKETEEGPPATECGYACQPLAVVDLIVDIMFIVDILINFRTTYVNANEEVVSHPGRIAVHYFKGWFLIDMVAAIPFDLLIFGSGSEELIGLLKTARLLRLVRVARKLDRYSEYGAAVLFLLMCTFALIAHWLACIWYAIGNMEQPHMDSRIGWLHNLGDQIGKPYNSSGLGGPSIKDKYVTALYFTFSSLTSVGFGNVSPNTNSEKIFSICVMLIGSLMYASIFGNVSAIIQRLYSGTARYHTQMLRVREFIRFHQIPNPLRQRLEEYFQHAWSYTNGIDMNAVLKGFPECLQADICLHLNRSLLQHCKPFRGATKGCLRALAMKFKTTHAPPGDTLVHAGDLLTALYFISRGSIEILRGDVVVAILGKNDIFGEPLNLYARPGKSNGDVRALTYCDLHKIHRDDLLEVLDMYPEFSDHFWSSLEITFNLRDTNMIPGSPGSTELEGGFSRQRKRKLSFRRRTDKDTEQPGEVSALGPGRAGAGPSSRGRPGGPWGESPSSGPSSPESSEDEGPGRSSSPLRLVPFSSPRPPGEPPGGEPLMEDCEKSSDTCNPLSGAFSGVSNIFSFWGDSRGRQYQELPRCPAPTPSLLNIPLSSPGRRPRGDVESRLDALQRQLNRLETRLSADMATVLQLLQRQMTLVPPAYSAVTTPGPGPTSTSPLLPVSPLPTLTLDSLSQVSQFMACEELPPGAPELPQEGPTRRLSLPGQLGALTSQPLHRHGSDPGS
- test description: Inhibition of human ERG at 10 uM by patch clamp experiment

| smi | measured parameter | reading |
| --- | --- | --- |
| CNC(=O)c1ccc(Oc2ccc3c(c2)CCN(C2CCC2)CC3)nc1 | inhibition at 10 µM | 36% |
| O=C1CCCN1c1ccc(Oc2ccc3c(c2)CCN(C2CCC2)CC3)nc1 | inhibition at 10 µM | < 10% |

Now for another entry.
Q) Looking for the measured inhibition at 10 µM of `CNC(=O)c1cnc(Oc2ccc3c(c2)CCN(C2CCC2)CC3)cn1` , can you help?
A) < 10%

====

- test description: Cmax in iv dosed Beagle dog
- Format: ADME, organism-based, Canis lupus familiaris
- Design: route intravenous
- condition context: in vivo
measured parameter: Cmax (nM)
Could you give me the number in nM? Just the number is fine.

Q) Looking for the measured Cmax of O=C1CCCN1c1ccc(Oc2ccc3c(c2)CCN(C2CCC2)CC3)nc1 [GSK239512] , can you help?
A) 393

====

- test description: Tmax in po dosed Sprague-Dawley rat
- Format: ADME, organism-based
- condition context: in vivo
measured parameter: Tmax (h)
Could you give me the number in h? Just the number is fine.

Q) Looking for the measured Tmax of `O=C1CCCN1c1ccc(Oc2ccc3c(c2)CCN(C2CCC2)CC3)nc1` , can you help?
A) 1

====

- subject of test: Histamine H3 receptor (Homo sapiens, UniProt Q9Y5N1)
- Sequence (Q9Y5N1 whole entry): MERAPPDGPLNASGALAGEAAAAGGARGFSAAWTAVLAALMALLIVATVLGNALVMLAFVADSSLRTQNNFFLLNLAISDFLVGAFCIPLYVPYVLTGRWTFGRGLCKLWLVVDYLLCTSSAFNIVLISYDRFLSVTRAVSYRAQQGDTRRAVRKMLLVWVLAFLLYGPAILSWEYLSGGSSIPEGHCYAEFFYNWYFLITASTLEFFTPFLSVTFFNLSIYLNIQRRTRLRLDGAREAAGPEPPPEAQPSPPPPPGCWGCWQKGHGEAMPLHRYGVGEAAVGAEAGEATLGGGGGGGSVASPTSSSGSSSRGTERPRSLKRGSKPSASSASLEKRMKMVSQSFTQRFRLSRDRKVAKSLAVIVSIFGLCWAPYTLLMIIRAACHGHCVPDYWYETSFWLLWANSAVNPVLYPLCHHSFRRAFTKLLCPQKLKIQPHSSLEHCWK
- test description: Antagonist activity at human histamine H3 receptor expressed in CHOK1 cells assessed as inhibition of GTPgammaS binding
- Type: functional, cell-based, CHO-K1
pKi: −log10 of the molar value.
Response key: 1 means pKi >= 9; -1 means pKi < 9.

These recorded examples may help you get a feel for the data.
| molecule | label class |
| --- | --- |
| NC(=O)c1ccc(Oc2ccc3c(c2)CCN(C2CCC2)CC3)nc1 | 1 |
| CNC(=O)c1ccc(Oc2ccc3c(c2)CCN(C2CCC2)CC3)nc1 [GSK189254] | 1 |
| c1ccc(Oc2ccc3c(c2)CCN(C2CCC2)CC3)cc1 | -1 |
| Cc1nc(Oc2ccc3c(c2)CCN(C2CCC2)CC3)ccc1C#N | 1 |
| CNC(=O)c1ccc(Oc2ccc3c(c2)CCN(C2CCC2)CC3)cn1 | 1 |

Q) Could you please find out whether `c1cnn(-c2ccc(Oc3ccc4c(c3)CCN(C3CCC3)CC4)nc2)c1` has pKi that meets 9 or exceeds it?
A) 1

Q) Next: `O=C1OCCN1c1ccc(Oc2ccc3c(c2)CCN(C2CCC2)CC3)nc1`
A) 1

Q) Next: `O=C(c1ccc(Oc2ccc3c(c2)CCN(C2CCC2)CC3)nc1)N1CCCC1`
A) 1

====

- subject of test: UniProt Q9Y5N1
- test description: Antagonist activity at human histamine H3 receptor expressed in CHOK1 cells assessed as inhibition of GTPgammaS binding
- Format: functional, cell-based, CHO-K1
measured parameter: Ki (pM)
Could you give me the number in pM? Just the number is fine.

Reference set (4 entries):
| smi | subject of test | reading |
| --- | --- | --- |
| CCN(C)C(=O)c1ccc(Oc2ccc3c(c2)CCN(C2CCC2)CC3)nc1 | UniProt Q9Y5N1 | 631 |
| O=C1CCCN1c1ccc(Oc2ccc3c(c2)CCN(C2CCC2)CC3)nc1 | UniProt Q9Y5N1 | 100 |
| c1cncc(Oc2ccc3c(c2)CCN(C2CCC2)CC3)c1 | UniProt Q9Y5N1 | 2510 |
| CNC(=O)c1ccc(Oc2ccc3c(c2)CCN(C2CCC2)CC3)cc1 | UniProt Q9Y5N1 | 501 |

Q) Looking for the measured Ki of `CCNC(=O)c1ccc(Oc2ccc3c(c2)CCN(C2CCC2)CC3)cn1` , can you help?
A) 631

Q) Next: `O=C1CCCN1c1ccc(Oc2ccc3c(c2)CCN(C2CCCC2)CC3)nc1`
A) 126

Q) Next: `O=C1C[C@@H](O)CN1c1ccc(Oc2ccc3c(c2)CCN(C2CCC2)CC3)nc1`
A) 200
